# systemUnderTest: T1, SARS-CoV-2 Spike S1 domain K417N, E484K, N501Y, D614G (SARS-CoV-2, UniProt P0DTC2 16-685)
# T1 construct: domain: S1; also called S. African (K417N, E484K, N501Y, D614G); B.1.351
# assayMethodText: HTRF, soluble S1 construct
The entries below come with measured fold over background values attached.
measuredProperty: fold over background (fold over background)

binder	reportedMeasurement
PR194_00232 (antibody, V domains shown, also called IMM20190; PR194_00190) VH: EVQLVESGGGLVQPGGSLRLSCSASGFTVSSNYMSWVRQAPRKGLEWVSVIYAGGSTFYADSVKGRFTISRDNSKNTLLLQMNSLRAEDTAVYYCARDRGGYLDYWGQGTLVTVSS VL: DIQMTQSPSSLSASVGDRVTITCRASQGISNYLAWYQQKPGKVPKLLIYAASTLQSGVPSRFSGSGSGTDFTLTISSLQPEDVATYYCQKYNSAPGLTFGGGTKVEIK	1.12
PR193_00018 (antibody, V domains shown, also called IMM20184; IMM200184) VH: EVQLVESGGGLVQPGGSLRLSCSASGFTFSSFWMSWVRQAPGKGLEWVATIREDGSEKYYVDSVKGRFSISRDNAKNSLYLQMNSLRAEDTAVYYCARSKWLRGSFDYWGQGTLVTVSS VL: NFMLTQPHSVSESPGKTVTISCTRRSGSIASNYVQWYQQRPGSAPTTVIYEDNQRPSGVPDRFSGSIDSSSNSASLTISGLQTEDEADYYCQSYDSSNPPGASWVFGGGTKLTVL	4.64
PR194_00292 (antibody, V domains shown) VH: QVQLQQWGAGLLKPSETLSLTCAVYGGSLSGYYWSWIRQPPGKGLEWIGEINHSGSTNHNPSLKSRVSISVDTSKNQFSLKLSSVTAADTAVYYCARAWKYSSSWYSGGIYYGMDVWGQGTTVTVSS VL: QSALTQPASVSGSPGQSITISCSGTSSDVGSYNLVSWYQQHPGKAPKLMIYEGTKRPSGVSNRFSSSKSGNTASLTISGLQAEDEADYYCCSYAGFSTWVFGGGTKLTVL	2.26
PR200_00622 (antibody, V domains shown, also called IMM20253; PR200_00253) VH: QVQLVESGGGVVQPGRSLRLSCTASGFTFSTYGMHWVRQAPGKGLEWVAVISYDGSSKHYAESVKGRFTISRDNSNNTLYLQMNRLRAEDTAVYYCARDGQPPGWGNYFDYWGQGTLVTVAS VL: SYVLTQPPSVSVAPGKTARITCGGNGIGSKSVYWYQQKPGQAPEVVVYDDSDRPSGIPERFSGSNSGNTATLTISRVEAGDEADYYCQVWDSSSDPWVFGGGTKLTVL	6.28
PR199_00255 (antibody, V domains shown, also called IMM20279; PR190_00255) VH: QVQLVESGGGVVQPGRSLRLSCAASGFTFSTYGMHWVRQAPGKGLEWVAVIWYNGINKHYADSVKGRFTISRDNSKNTLYLQMSSLRVEDTAVYYCARDWGTLTTLFDFWGQGTLVTVSS VL: DIQMTQSPSSLSASVGERATITCRASQSISSHLNWYQQKPGKAPKFLIYGASSLQSGVPSRFSGSGSGTDFTLTISSLQPEDFATYYCQQSYSTPPWTFGQGTKVEIK	9.48
PR197_00647 (antibody, V domains shown) VH: QVQLVESGGGVVQPGRSLRLSCAASGFTFSSYAMHWVRQAPGKGLQWVTLISYDGGDKYYADSVRGRFTISRDNSKNTLYLQMNSLRTEDTAVYYCARDRPQTGDWFPPIPTGVLDVWGQGTTVTVSS VL: DIQMTQSPSSLSASVGDRVTITCRASQGISNYLAWFQQKPGKAPKSLIYAASSLQSGVPSRFSGSESGTDFTLTISSLQPEDFATYYCQQYHSYPITFGQGTRLEIK	7.72
PR201_00151 (antibody, V domains shown) VH: RVTLRESGPALVKPTQTLTLTCTFSGFSLNTSGMCVSWIRQPPGKALEWLARIDWDDDKYYSTSLETRLTISKDTSKNQVVLTMTNLDPVDTGTYYCARISIQSRGGGADYWGQGTLVTVSS VL: DIQMTQSPSSLSASVGDRVTITCRASQSISSYLHWYQQKSGKAPKLLIFVASTLQSGVPSRFSGSGSGTDFTLTISSLQPEDSAAYYCQQSYSPPWTFGQGTKVEIK	1.05

Attribution: patent US20220235118A1
